Test: pKa by automated Mettler Toledo titration
Conditions: 50 weight % aqueous amine solution
observed.property: pKa

query: Fill blank: measured pKa of the compound CN(C)C(CO)(CO)CO is ____.
result: 9.1

The origin of these recorded values is patent US9708557B2.
